Provenance of the data: patent US10611750B2

biological target: BRD4 Bromodomain 2 (BRD4 BD2) (Homo sapiens); construct: 333-460 were cloned, expressed, and purified to homogeneity; experiment: AlphaScreen binding assay, BRD4 BD2; settings: His-tagged BRD4 BD2 100 nM, biotinylated H4 (1-21) K5/8/12/16 tetra-acetylated peptide 100 nM, compounds listed under IC50 range headings
# maps each entry to its IC50
Assay readout: IC50

• CCCOc1cccc2c1CC[C@H](C)N2C(C)=O [I-605] = ≥ 500 nM
• CC(=O)N1c2ccc(-c3cnn(C4CC4)c3)c(O[C@H](F)C(N)=O)c2CC[C@@H]1C (single isomer, unassigned) [I-63] = 50 to 500 nM
• CC(=O)N1c2ccc(-c3cnn(C4CC4)c3)c(Oc3ncc4ccccc4n3)c2CC[C@@H]1C [I-77] = < 50 nM
• CC(=O)N1c2ccc(-c3cnn(C4CC4)c3)c(Oc3ccccc3Cl)c2CC[C@@H]1C [I-211] = < 50 nM
• COC(=O)N1c2ccc(-c3cnn(C4CCNCC4)c3)c(OCC(=O)N3CCCC3)c2CC[C@@H]1C [I-466] = 50 to 500 nM
• COC(=O)N1c2ccc(-c3cnn(C4CNC4)c3)c(Oc3cccc(F)c3C#N)c2CC[C@@H]1C [I-139] = < 50 nM
• COC(=O)N1c2ccc(-c3cnn(C4CC4)c3)c(OCC3CC3(F)F)c2CC[C@@H]1C (some centres unmarked) [I-31] = < 50 nM
• CC(=O)N1c2ccc(-c3cnn(C4CC4)c3)c(OCc3ccccn3)c2CC[C@@H]1C [I-403] = 50 to 500 nM

* * *

molecular target: BRD4 Bromodomain 2 (BRD4 BD2) (Homo sapiens); construct: 333-460 were cloned, expressed, and purified to homogeneity; experiment: AlphaScreen binding assay, BRD4 BD2; conditions: His-tagged BRD4 BD2 100 nM, biotinylated H4 (1-21) K5/8/12/16 tetra-acetylated peptide 100 nM, compounds listed under IC50 range headings
pIC50: −log10 of the molar value.
Assay readout: pIC50

• CCCOc1c(-c2cnn(C3CNC3)c2)ccc2c1CC[C@H](C)N2C(=O)C1CC1 [I-102] = > 7.30
• C/C=C/n1c(Oc2c(-c3cnn(C4CC4)c3)ccc3c2CC[C@H](C)N3C(C)=O)nc2ccccc21 [I-351] = > 7.30
• COC(=O)N1c2ccc(-c3cnn(C4CCNCC4)c3)c(Oc3ncc(C(F)(F)F)cc3F)c2CC[C@@H]1C [I-536] = 6.30 to 7.30
• CC(=O)N1c2ccc(-c3cnn(C4CCNCC4)c3)c(OCC3CCOCC3)c2CC[C@@H]1C [I-416] = > 7.30
• CCS(=O)(=O)c1ccc(-c2ccc3c(c2OCC(=O)N(C)C)CC[C@H](C)N3C(C)=O)cc1 [I-485] = ≤ 6.30

* * *

biological target: BRD4 Bromodomain 1 (BRD4 BD1) (Homo sapiens, UniProt O60885); construct: 44-168 and BRD4 BD2; experiment: AlphaScreen binding assay, BRD4 BD1; settings: His-tagged BRD4 BD1 50 nM, biotinylated H4 (1-21) K5/8/12/16 tetra-acetylated peptide 50 nM, compounds listed under IC50 range headings
pIC50: −log10 of the molar value.
# maps each entry to its pIC50
Assay readout: pIC50

* CC(=O)N1c2ccc(-c3cnn(C4CC4)c3)c(OC3CCC3)c2CC[C@@H]1C [I-389] | 6.00 to 7.00
* CC(=O)N1c2ccc(-c3cnn(C4CCNCC4)c3)c(Oc3cccc(C)n3)c2CC[C@@H]1C [I-334] | 5.00 to 6.00
* C[C@H]1CCc2c(ccc(-c3cnn(C4CCNCC4)c3)c2Oc2cccc(C#N)c2)N1C(=O)C1CC1 [I-202] | 6.00 to 7.00
* CC(=O)N1c2ccc(-c3cnn(C4CCNCC4)c3)c(Oc3ncc(C)cn3)c2CC[C@@H]1C [I-144] | 6.00 to 7.00
* COC(=O)N1c2ccc(-c3cnn(CC(C)(C)O)c3)c(OCC(=O)N(C)C)c2CC[C@@H]1C [I-453] | 5.00 to 6.00
